# test system: Nucleosome-remodeling factor subunit BPTF (Homo sapiens)
# protocol text: FALZ DiscoverX BROMOscan
measure: Kd
Enter the number, and then the unit.

Q. Query: Kd; subject: Cc1cc2c(-c3ccco3)cnc(N[C@@H]3CCN(C)C[C@H]3C(=O)NC3CCCCC3)c2[nH]c1=O
A. 31.6 µM

Just for reference, ChEMBL document CHEMBL4630905 is where these values come from.
